System: U2OS cells
Assay Info: WST-1 proliferation assay on U2OS cells treated with peptide
Format: cell-based
Assay Context: High sera, 10 uM, head 8 SD
I'd appreciate it if you could supply proliferation hit score, High sera values for the items below.
Reply with the number, then its unit.

The examples below pair each entry with its known result.
1) SEQ ID NO: 37997: synthetically produced target protein, secreted tumor suppressor; sequence only in Sequence Listing (MSRLSLSWESLTNAIWPLDLQDIKGYLPNPLPQRVNLRKQILSISKEPN; listed as Homo sapiens)	−13.23 SD
2) SEQ ID NO: 33681: peptide hit of Table E; sequence only in Sequence Listing (IMAIFFFFCIIVSSLPTAELGTENACSTCLLNE; listed as Homo sapiens)	−10.57 SD
3) SEQ ID NO: 29230: peptide hit of Table E; sequence only in Sequence Listing (REQVPGMGGKSWLFFYSLVFCALLPLPRREDPFKLF; listed as Homo sapiens)	−5.758 SD
4) SEQ ID NO: 38081: peptide hit of Table E; sequence only in Sequence Listing (MRRAWRPRLLGAALVAH; listed as Homo sapiens)	−3.67 SD

Entry SEQ ID NO: 33599: ORF peptide; sequence only in Sequence Listing (MCLGLLFCFMPLSLVVSSEEARFKVAADLCGFATGNSW; listed as Homo sapiens) under U2OS cells had proliferation hit score, High sera of −14.68 SD
